For each entry below, report its z-score value.
Target: Homeobox protein Hox-A13 (Mus musculus)
Test: disruptors of Hoxa13 oligonucleotide interaction – biochemical, fluorescence polarization, labeled oligonucleotide, primary screen (AID 1185)
Conditions: Hoxa13:DNA binding, 15 min, higher = more signal, called active from +8 up or from −8 down
Numbers only.

Would you please look over these solved cases?
[
  {
    "Compound": "CCOC(=O)C[C@H]1[C@H](OC(=O)Cc2ccc3c(c2)OCO3)[C@@H](NC(=O)c2ccc3ccccc3n2)c2cc(OCCCO)ccc2N1C(=O)c1ccccc1",
    "Reported value": -2.41
  },
  {
    "Compound": "C=CCNC(=O)[C@@H]1[C@H]2C(=O)O[C@H](c3ccccc3)[C@H](c3ccccc3)N2[C@H](c2ccccc2OCCO)[C@@]12C(=O)Nc1ccc(C#CCC(C(=O)OC)C(=O)OC)cc12",
    "Reported value": -3.02
  },
  {
    "Compound": "O=C1C2C=CC(C(O)C3CC=CCC3)N(Nc3ccccc3)C2C(=O)N1c1ccccc1 (configuration not stated)",
    "Reported value": -3.25
  }
]

Provide each entry's z-score from the list below.
1. [N-]=[N+]=Nc1ccccc1C[C@@]1(C(N)=O)N=C(c2ccc(OCCCO)cc2)O[C@@H]1c1ccccc1N=[N+]=[N-]
2. COC(=O)C(CC#Cc1ccc2c(c1)[C@]1(C(=O)N2)[C@H](c2ccc(O)cc2)N2[C@H](c3ccccc3)[C@H](c3ccccc3)OC(=O)[C@H]2[C@@H]1C(=O)NC[C@H](O)c1ccccc1)C(=O)OC
3. COCCOC(=O)N1C(=O)[C@@]2(c3ccccc31)[C@H](c1ccc(O)cc1)N1[C@H](c3ccccc3)[C@H](c3ccccc3)OC(=O)[C@H]1[C@@H]2C(=O)N1CCN(c2ncccn2)CC1
4. O=C(O)[C@@H]1C[C@@H]2C(=O)N3CCC[C@H]3C(=O)N2[C@@H]1c1ccc(O)cc1
5. CO[C@H]1O[C@H](CO)[C@@H](OC(=O)Nc2ccc3c(c2)OCO3)[C@H](OC(=O)Nc2ccc3c(c2)OCO3)[C@@H]1OC(=O)Nc1ccc2c(c1)OCO2
6. COC(=O)[C@@]1(Cc2ccc(OC)cc2)[C@H]2c3cc(C(=O)N4CCCC4)n(CCO)c3C[C@H]2CN1C(=O)c1ccccc1
7. Cc1ccc(C(C)CC(O)C2C=CC3C(=O)N(c4ccccc4)C(=O)C3N2Nc2ccccc2)o1 (configuration not stated)
8. O[C@@H](Cc1ccccc1)[C@@H](/C=C/C1CC1)N(CC#Cc1ccccc1)Cc1ccccc1Br

1. -5.05
2. -3
3. -2.14
4. 1.66
5. -4.7
6. -5.06
7. -1.12
8. -0.167

Would you mind telling me what z-score value was observed for C#CCN(Cc1ccccc1Br)[C@H](/C=C/c1ccccc1)[C@@H](O)Cc1ccccc1 ?
-0.384

###

Target: Dickkopf-related protein 1 (Homo sapiens) (UniProt O94907)
Sequence (O94907 whole entry, looked up): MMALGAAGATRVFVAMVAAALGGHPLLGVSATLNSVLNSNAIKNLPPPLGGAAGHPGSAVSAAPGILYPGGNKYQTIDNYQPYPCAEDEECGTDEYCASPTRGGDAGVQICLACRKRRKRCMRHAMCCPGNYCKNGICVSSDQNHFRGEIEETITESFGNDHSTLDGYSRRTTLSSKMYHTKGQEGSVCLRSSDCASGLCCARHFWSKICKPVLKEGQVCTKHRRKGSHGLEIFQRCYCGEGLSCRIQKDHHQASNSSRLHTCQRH
Test: small molecules binding DKK1 protein – biochemical, small-molecule microarray, 635 nm fluorescence scan, primary screen (AID 1106);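 further: score merges emission near 667 nm with signal to noise over three replicate slides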
Conditions: higher = more signal
Everything with composite z-score lower than -0.4 is Not fulfilled; everything else, including exactly -0.4, is Fulfilled.

Example entries begin here.
[
  {
    "Compound": "CCCCC(=C=CC[C@H](O)c1ccc(OCCO)cc1)CCO",
    "Class": "Not fulfilled"
  },
  {
    "Compound": "COCCCNC(=O)[C@@]1(Sc2ccc(C)cc2)CC(=O)N(C2Cc3ccccc3C2)[C@@H]1c1ccc(CO)cc1",
    "Class": "Not fulfilled"
  },
  {
    "Compound": "CCOC(=O)C[C@H]1[C@H](OC(=O)c2ccc(C(=O)c3ccccc3)cc2)[C@@H](NC(=O)c2ccc(-c3ccccc3)cc2)c2cc(OCCCO)ccc2N1C(=O)Cc1ccc(OC)cc1",
    "Class": "Not fulfilled"
  },
  {
    "Compound": "CCCCCCc1nc(Cc2cc(OC)c(OC)c(OC)c2)cc2c1[Si](C(C)C)(C(C)C)OC2",
    "Class": "Fulfilled"
  },
  {
    "Compound": "CCCNC(=O)[C@@H]1c2ccccc2C(=O)N(Cc2ccc(OC(F)(F)F)cc2)[C@H]1c1ccc(CO)cc1",
    "Class": "Fulfilled"
  },
  {
    "Compound": "CCCN1C(=O)[C@]2(Cc3ccccc31)N=C(c1ccc(OCCCO)cc1)O[C@@H]2c1ccccc1",
    "Class": "Fulfilled"
  }
]

Tell me whether composite z-score is at least -0.4 here: COC(=O)C1=CC(CCCO)=CC(c2cccs2)N(C)C=C1C(=O)OC (stereo not given)
Not fulfilled

Tell me whether composite z-score is at least -0.4 here: C[C@@H]1NC(=O)[C@@H](Cc2ccccc2)NC(=O)[C@@]23C(=O)N[C@@H](Cc4ccccc4)C2[C@H](C)[C@@]2(C)O[C@H]2C3/C=C/C/C=C\CNC1=O (stereo not given in full)
Fulfilled

Tell me whether composite z-score is at least -0.4 here: CCOC(=O)C[C@H]1[C@H](OC(=O)Cc2ccc3c(c2)OCO3)[C@@H](NC(=O)c2ccc3ccccc3n2)c2cc(OCCCO)ccc2N1C(=O)c1ccccc1
Fulfilled

Tell me whether composite z-score is at least -0.4 here: N#Cc1ccc(NN2C(C(O)c3ccc(Br)cc3)C=CC3C(=O)N(c4ccccc4)C(=O)C32)cc1 (stereo not given)
Fulfilled

###

For each entry below, report its composite z-score value.
Biological target: E3 ubiquitin-protein ligase XIAP (Homo sapiens) (UniProt P98170)
Sequence (P98170 whole entry, looked up): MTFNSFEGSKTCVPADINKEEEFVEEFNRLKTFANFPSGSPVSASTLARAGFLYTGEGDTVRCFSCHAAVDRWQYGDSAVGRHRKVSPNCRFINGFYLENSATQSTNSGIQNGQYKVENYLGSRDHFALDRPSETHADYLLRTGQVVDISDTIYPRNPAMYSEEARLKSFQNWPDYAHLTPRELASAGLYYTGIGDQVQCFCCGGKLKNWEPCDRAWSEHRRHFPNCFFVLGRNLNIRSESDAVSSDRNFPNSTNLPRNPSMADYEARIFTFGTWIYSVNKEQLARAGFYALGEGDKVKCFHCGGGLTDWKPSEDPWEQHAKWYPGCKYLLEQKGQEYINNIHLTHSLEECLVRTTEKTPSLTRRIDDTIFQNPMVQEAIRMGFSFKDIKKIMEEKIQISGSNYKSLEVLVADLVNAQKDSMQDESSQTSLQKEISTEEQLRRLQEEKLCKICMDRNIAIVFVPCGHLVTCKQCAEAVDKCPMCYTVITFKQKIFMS
Test: small molecules binding XIAP protein – biophysical, small-molecule microarray, fluorescence 635 nm, primary screen (AID 1181);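 further: score merges 667 nm emission and signal to noise over triplicate slides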
Conditions: higher = more signal
One number for each entry.

[
  {
    "Compound": "O=C(Cc1ccccc1)[C@H]1C2C=CCCC(c3ccccc3)=C2CN1Cc1ccccc1 (stereo partly drawn)",
    "Readout label": "composite z-score",
    "Reported value": -0.441
  },
  {
    "Compound": "COC(=O)[C@@]1(Cc2ccc(OC)cc2)[C@H]2c3cc(C(=O)N4CCCC4)n(CCc4c[nH]c5ccc(OC)cc45)c3C[C@H]2CN1C(=O)c1ccccc1",
    "Readout label": "composite z-score",
    "Reported value": 0.123
  },
  {
    "Compound": "CN(C)C(=O)[C@]1(Cc2ccccc2CN=[N+]=[N-])N=C(c2ccc(OCCCO)cc2)O[C@@H]1c1ccccc1",
    "Readout label": "composite z-score",
    "Reported value": -0.127
  },
  {
    "Compound": "CCCCC(=C=CC[C@H](O)c1ccc(OCCO)cc1)CCO",
    "Readout label": "composite z-score",
    "Reported value": 0.0365
  },
  {
    "Compound": "CN(C)CCCCCCNC(=O)[C@@H]1C[C@@H]2C(=O)N3CCC[C@H]3C(=O)N2[C@@H]1c1cccc(OCCO)c1",
    "Readout label": "composite z-score",
    "Reported value": -0.0062
  }
]

Provide each entry's composite z-score from the list below.
1. CC(C)C(CO)N1C(=O)[C@@H]2C3C(=O)OCCC/C=C\[C@H]3OC23C=CCN(Cn2nnc4ccccc42)C(=O)[C@@H]13 (stereo partly drawn)
2. CCOC(=O)C1=C[C@@H](C(C)(C)C)N(S(=O)(=O)c2ccc(C)cc2)[C@H]1c1cccc2ccccc12
3. CCCC=C(CCC)[C@@H](NP(=O)(c1ccccc1)c1ccccc1)c1ccc(-c2ccccc2)cc1

1. -0.0367
2. 0.307
3. 0.144

###

For each entry below, report its composite z-score value.
Biological target: Fibroblast growth factor 2 (Homo sapiens)
Assay: basic fibroblast growth factor binding to printed compounds – biochemical, small-molecule microarray, 635/667 nm fluorescence, primary screen (AID 1133)
Conditions: FGF2, fluorescence 635/667, higher = more signal
One number for each entry.

Would you please look over these solved cases?
[
  {
    "Compound": "Cc1ccc(S[C@]2(C(=O)NCc3ccccc3)CC(=O)N(C3CCCCC3)[C@@H]2c2ccc(CO)cc2I)cc1",
    "Reported value": 0.904
  },
  {
    "Compound": "CCCCCCCCCCC(O)C1C=CC2C(=O)N(c3ccccc3)C(=O)C2N1Nc1ccc(C#N)cc1 (stereo unspecified)",
    "Reported value": 0.429
  },
  {
    "Compound": "CC(C)C[C@@H]1NC(=O)[C@@H]2C[C@H](C(=O)NCCCCCCN)[C@H](c3cccc(OCCO)c3)N2C1=O",
    "Reported value": 0.548
  },
  {
    "Compound": "COC(=O)[C@@]1(Cc2ccc(OC)cc2)[C@H]2c3cc(C(=O)N(C)C)n(Cc4ccc(OC(F)(F)F)cc4)c3C[C@H]2CN1C(=O)c1ccccc1",
    "Reported value": -0.555
  },
  {
    "Compound": "CCCCCC1=C2CNC(C)(C(=O)OC)C=C2C(C)C1=O (stereo unspecified)",
    "Reported value": -0.328
  }
]

Consider now this further compound.
Would you mind telling me what composite z-score value was observed for O=C1[C@H]2C=C(I)[C@H](C[C@@H]2OCCOCCO)[C@@]12CO2 ?
0.952
